A collection of compounds and their measured viability at 24 h, 100 µM
procedureText: Cytotoxicity against human THP-1 cells assessed as cell survival at 100 uM incubated for 24 hrs by MTT assay (reference value: 100.0 +/- 5.24 %)
Assay type: toxicity, cell-based
measurementConditions: THP-1 cells, read-out: Activity
The answer consists of two parts: a number and, after it, its unit.

Cc1ccc(-n2c(-c3cc4ccccc4oc3=O)nc3ccccc32)cc1 ... 27.3%

Need viability at 24 h, 100 µM, item CN[C@H](CC(C)C)C(=O)N[C@H]1C(=O)N[C@@H](CC(N)=O)C(=O)N[C@H]2C(=O)N[C@H]3C(=O)N[C@H](C(=O)N[C@H](C(=O)O)c4cc(O)cc(O)c4-c4cc3ccc4O)[C@H](O)c3ccc(c(Cl)c3)Oc3cc2cc(c3O[C@@H]2O[C@H](CO)[C@@H](O)[C@H](O)[C@H]2O[C@H]2C[C@](C)(N)[C@H](O)[C@H](C)O2)Oc2ccc(cc2Cl)[C@H]1O
65.9%

Could you tell me which viability at 24 h, 100 µM is on file for CCCCn1c(-c2cc3ccccc3oc2=O)nc2ccccc21 ?
27.7%
